# assay_remarks: blockers of RIG-like receptor reporter activation – cell-based, Sendai virus stimulus, luciferase, 10K MLSCN set, TLR/RLR signaling modifier project, primary screen (AID 602276);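 note: firefly luciferase from ISG56 promoter only with Renilla not read in this screen; 0% = Sendai virus plus DMSO and 100% = medium plus DMSO without virus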
# condition_description: HEK293 RL24 IRF3 luciferase reporter, at 10 µM, stronger effect = higher value
reported_metric: inhibition (%)

[[record]]
compound = "Nc1cccc2c1C(=O)N(c1ccccc1)C2=O"
reported_metric = "inhibition"
quantitative_result = -20.4

[[record]]
compound = "Cc1ccc(Cn2c(=O)c3ccccc3n3c(CCC(=O)O)nnc23)cc1"
reported_metric = "inhibition"
quantitative_result = 0.88

[[record]]
compound = "Cc1cc(C(=O)CSc2nc3ccccc3n2CCC#N)c(C)n1Cc1cccs1"
reported_metric = "inhibition"
quantitative_result = 20.7

[[record]]
compound = "Cc1[nH]nc2c1C1(CCN(C(=O)c3ccccc3)CC1)C(C#N)=C(N)O2"
reported_metric = "inhibition"
quantitative_result = 26.8

[[record]]
compound = "CCCCC(NC(C)=O)c1nc2ccccc2n1CCC (stereo unspecified)"
reported_metric = "inhibition"
quantitative_result = 22.7

[[record]]
compound = "CC1CCCC(N2CCN(C(=O)c3ccc(F)cc3)CC2)C1 (stereo unspecified)"
reported_metric = "inhibition"
quantitative_result = 2.84

[[record]]
compound = "Cn1c(=O)n(C)c2cc(NC(=O)C(F)(F)F)ccc21"
reported_metric = "inhibition"
quantitative_result = 5.97

[[record]]
compound = "CC1CN(C2CCCCC2)c2nc3c(c(=O)[nH]c(=O)n3C)n2C1 (stereo unspecified)"
reported_metric = "inhibition"
quantitative_result = 13.1

[[record]]
compound = "Cc1cc(=O)oc2cc(Oc3ncccn3)ccc12"
reported_metric = "inhibition"
quantitative_result = -6.46

[[record]]
compound = "COc1cccc(NC(=O)CSc2nnnn2C(C)C)c1"
reported_metric = "inhibition"
quantitative_result = 0.303

[[record]]
compound = "CCOCCCN(Cc1cc2cc(C)cc(C)c2[nH]c1=O)C(=O)N(CC)CC"
reported_metric = "inhibition"
quantitative_result = -10.7

